- Assay Name: probe aShh binding to arrayed compounds – biochemical, biotinylated probe, 635/667 nm fluorescence, primary screen (AID 1114);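 further: probe is biotin-labelled aShh protein from a stem cell growth factor screen; measures binding of labelled protein to compounds printed on the slide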
- Condition Info: small-molecule microarray, higher = more signal
Use -0.08 as the dividing line for composite z-score, with the line itself on the yes side and lower values as no.

Examples with answers:
>>> assigned_class("[N-]=[N+]=Nc1ccccc1C[C@]1(C(=O)NCCN2CCOCC2)COC(c2ccc(OCCCO)cc2)=N1")
"no"
>>> assigned_class("CCCC[C@@H](O)C1=C(COC)C[C@H]2C(=O)N(Cc3ccccc3)C(=O)[C@H]2[C@H]1CO")
"no"
>>> assigned_class("CC(C)[Si](C#C[Si](C(C)C)(C(C)C)C(C)C)(O[C@H](c1ccccc1)c1cn(Cc2ccccc2)nn1)C(C)C")
"yes"

# bool: composite z-score of [N-]=[N+]=Nc1ccccc1C[C@@]1(C(=O)NCCN2CCOCC2)N=C(c2ccc(OCCCO)cc2)O[C@@H]1c1ccccc1N=[N+]=[N-] >= -0.08
yes

Reported composite z-score reaches at least -0.08 for COc1ccc([Si](C)(C)[C@H]2[C@H](CC(=O)N3Cc4ccccc4C[C@H]3CO)O[C@@]3(C(=O)N(Cc4ccc(N5CCOC5=O)cc4)c4ccccc43)[C@@H]2C)cc1 ?
yes

Could you verify whether the entry CCCCC(=C=CC[C@H](O)c1ccc(OCCO)cc1)CCO shows composite z-score of no less than -0.08?
no

Hi, just wondering whether COCCOC(=O)N1C(=O)[C@@]2(c3cc(C#CC4=CCCCC4)ccc31)[C@H](C(=O)Nc1nc3ccccc3s1)[C@H]1C(=O)O[C@H](c3ccccc3)[C@H](c3ccccc3)N1[C@@H]2c1ccc(O)cc1 shows composite z-score of -0.08 or higher.
no
